Each recorded value in this set is attributed to paper PMC10794952.

Test system: A. baumannii ATCC 19606
Assay: Broth microdilution MIC, A. baumannii ATCC 19606
Type: cell-based
Details: Acinetobacter baumannii, ATCC19606, A. baumannii ATCC 19606; +Fe: CAMHB + Fe; read-out: Minimum inhibitory concentrations
Listed below: MIC values for each entry.

{"molecule": "O=C(NCc1cc(=O)c(O)co1)c1ccc2nc(NC(=O)c3cc(Br)c(Br)[nH]3)sc2c1", "MIC": "> 50 µM"}
{"molecule": "O=C(NCc1cc(=O)c(O)c[nH]1)c1ccc2nc(NC(=O)c3cc(Br)c(Br)[nH]3)sc2c1", "MIC": "> 50 µM"}
{"molecule": "Cc1[nH]c(C(=O)Nc2nc3c(OCc4cc(=O)c(O)c[nH]4)cc(C(=O)O)cc3s2)c(Cl)c1Cl [Compound 18b]", "MIC": "> 50 µM"}
{"molecule": "CC(C)(O/N=C(\\C(=O)N[C@@H]1C(=O)N2C(C(=O)[O-])=C(C[N+]3(CCNC(=O)c4ccc(O)c(O)c4Cl)CCCC3)CS[C@H]12)c1csc(N)n1)C(=O)O [Cefiderocol, reference compound]", "MIC": "2 µM"}
